Tested on: OVCAR-3 ovarian
Experimental Details: NCI-60 one-dose screen, 48 h (100 = growth as untreated, 0 = no growth, -100 = all killed)
Test Conditions: 10 µM
Compounds without any hit were thinned out: in the full panel of roughly 83,000, 20% have a hit.
// growth lookup, one value per entry
Answer format: numeric, % implied, no suffix.

In [3]: df
Out[3]:
                                   compound  reading
0  CCOC(=O)C1=C(N)N(c2ccc(C)cc2)C2=C(C(=O)CC(C)(C)C2)C1c1ccccc1Br (configuration not stated)     84.9
1  O=C(CC(=O)Nc1ccc(Oc2ncnc3scc(Nc4n[nH]c(=S)s4)c23)cc1)Nc1ccc(Cl)cc1     82.7
2  O=C(Nc1ccc(OCC(=O)c2ccc(Cl)cc2)cc1)Nc1ccc(Cl)c(C(F)(F)F)c1       34

Look up and report measured growth for this entry: COc1ccc(C(=O)COc2ccc(NC(=O)Nc3ccccc3)cc2)cc1
104

Look up and report measured growth for this entry: COc1cc(-c2nc3ccc(C)cc3[nH]2)ccc1OCc1nnc(-c2ccccc2Br)o1
75.7

Look up and report measured growth for this entry: COc1cc(C2CC(c3ccc(Oc4ccc(Cl)cc4)cc3)=NN2c2nc(-c3ccc(Cl)cc3)c(C#N)c(N3CCOCC3)n2)cc(OC)c1OC (configuration not stated)
117

Look up and report measured growth for this entry: Cn1cc(-c2cc(N)n3nc(-c4cn(C)c5ccccc45)cc3n2)c2cc(F)ccc21
-75

* * *

Tested on: MDA-MB-468 breast
Experimental Details: NCI-60 one-dose screen, 48 h (100 = growth as untreated, 0 = no growth, -100 = all killed)
Test Conditions: 10 µM unless noted
Compounds without any hit were thinned out: in the full panel of roughly 83,000, 20% have a hit.
Measurement Label: growth (%)
Answer format: numeric, % implied, no suffix.

Use the examples below as a reference point.
>>> df
                                   molecule  quantity_unit  reading
0                  COc1ccc(/C=N/NC(N)=S)cc1              %     82.6
1  CC(C)(C)c1cc(-n2c(-c3ccc(Cl)cc3)nc3cc(C(=O)Nc4ccc(Cl)cc4)ccc32)n[nH]1              %     51.7
2  COc1c(C)c2c(c(O)c1C/C=C(\C)CCC(=O)OCCN1CCOCC1)C(=O)OC2              %     32.6
3  CC1SC(c2ccc(Cl)cc2)N(CCc2cccs2)C1=O (stereo not given)              %    -38.4

// next item, growth requested
Look up and report measured growth for this entry: O=c1[nH]c(Sc2sc3ccc(Cl)cc3c2CBr)nc(=S)[nH]1
19.1

* * *

// growth lookup, one value per entry
Tested on: MDA-MB-468 breast
Experimental Details: NCI-60 one-dose screen, 48 h (100 = growth as untreated, 0 = no growth, -100 = all killed)
Test Conditions: 10 µM unless noted
About 83,000 compounds went through this panel and 20% of them were active in at least one assay; those are over-represented in the sample as a whole.
Answer format: numeric, % implied, no suffix.

Use the examples below as a reference point.
                                   compound  reading
0  Nc1c(C(=O)Nc2c(Cl)cccc2Cl)sc2nc3c(cc12)CCCC3     82.3
1  O=C(Nc1ncc(Cc2cc(C(F)(F)F)ccc2Cl)s1)C(=S)N1CCOCC1     84.3
2              CN(CCNCc1ccccn1)CCNCc1ccccn1    -15.6

Enter growth (test system MDA-MB-468 breast) for CC1(C)CC[C@]2(C(=O)Nc3ccccn3)CC[C@]3(C)C(=CC[C@@H]4[C@@]5(C)C/C(=C/c6cccnc6)C(=O)C(C)(C)[C@@H]5CC[C@]43C)[C@H]2C1
17.2

Enter growth (test system MDA-MB-468 breast) for O=C1c2cccc3c(-c4ccc5c(c4)ncn5C4CCCCC4)ccc(c23)C(=O)N1c1nc2ccccc2s1
92

Enter growth (test system MDA-MB-468 breast) for COc1cc(/C=C2\SC(N3CCCCC3)=NC2=O)ccc1OCCCCCCOc1ccc(/C=C2\SC(N3CCCCC3)=NC2=O)cc1OC
7.38

Enter growth (test system MDA-MB-468 breast) for COC(=O)c1ccc(NC(=O)CCl)cc1
83.2

Enter growth (test system MDA-MB-468 breast) for COc1cc(C)c(C2C(C#N)=C(N)Oc3n[nH]c(-c4cccs4)c32)cc1C(C)C (stereo not given)
101

Enter growth (test system MDA-MB-468 breast) for Cc1ccc(O)c(NC(=O)c2cccc(Nc3ccnc(C(F)(F)F)c3)c2)c1
46

* * *

Test system: NCI-H460 lung
Experimental Details: NCI-60 one-dose screen, 48 h (100 = growth as untreated, 0 = no growth, -100 = all killed)
Test Conditions: 10 µM
The panel holds about 83,000 compounds, 20% with a hit somewhere; the sample as a whole holds those more often.
Measurement Label: growth (%)
Answer format: numeric, % implied, no suffix.

Compound	Quantity Unit	growth
O=C(c1ccc(Cl)cc1)C(c1c[nH]c2ccccc12)c1c[nH]c2ccccc12	%	-53.5
Cn1cc(/C=C(/SS/C(=C/c2cn(C)c3cccc(C(=O)O)c23)C(=O)O)C(=O)O)c2c(C(=O)O)cccc21	%	110
COc1ccc(C2OC[C@@]3(C)C4CC[C@]5(C)C(CC=C6C7CC(C)(C)CC[C@]7(C(=O)O)CC[C@]65C)[C@@]4(C)C[C@@H](O)[C@@H]3O2)cc1 (stereo partly drawn)	%	69.1
COC(=O)CNC(=O)COc1c(OC)c(OC)cc2oc(-c3cccc(C(=O)Nc4ccc(Cl)cc4)c3)cc(=O)c12	%	12.6
COc1cc2oc(-c3cccc(C(=O)Nc4ccc(Cl)cc4)c3)cc(=O)c2c(OCCN)c1OC	%	-87.2

Look up and report measured growth for this entry: O=C(CN1CCN(c2ncnc3c2cnn3-c2ccccc2)CC1)Nc1ccc(Br)cc1
57.7

Look up and report measured growth for this entry: COc1ccc(C(=O)COc2ccc(NC(=O)Nc3ccc(Cl)c(C(F)(F)F)c3)cc2)cc1
25.5

Look up and report measured growth for this entry: COc1cc(Nc2nc(O)c(/C=C3\C=Nc4ccccc43)s2)cc(OC)c1OC
-77.6

* * *

// growth lookup, one value per entry
Tested on: MALME-3M melanoma
Experimental Details: NCI-60 one-dose screen, 48 h (100 = growth as untreated, 0 = no growth, -100 = all killed)
Test Conditions: 10 µM
Compounds without any hit were thinned out: in the full panel of roughly 83,000, 20% have a hit.
Answer format: numeric, % implied, no suffix.

Use the examples below as a reference point.
Compound	Measurement Label	Reading
COc1ccc(C2c3sc4ccc(C)cc4c3Oc3nc(N)nc(N)c32)cc1 (centres undefined)	growth	85.3
COc1ccc(-n2c(SCC(=O)NNS(=O)(=O)c3ccccc3)nc3ccc(Cl)cc3c2=O)cc1	growth	117
C#C[C@]1(O)CC[C@H]2[C@@H]3CC=C4c5sc(Nc6ccc(C(F)(F)F)cn6)nc5CC[C@]4(C)[C@H]3CC[C@@]21C	growth	-13.1
O=C(CN1CCN(c2ncnc3c2cnn3-c2ccccc2)CC1)Nc1ccc(Cl)cc1	growth	-56.2
Cn1cc(-c2cc3nc(-c4c[nH]c5ccccc45)cc(N)n3n2)c2cc(Cl)ccc21	growth	-90.8

Look up and report measured growth for this entry: O=C(CSc1nc2ccccc2c(=O)n1-c1ccc(Cl)cc1)Nc1ccc(-c2nc3ccccc3[nH]2)cc1
-78.1

Look up and report measured growth for this entry: COc1ccc(C2OC[C@@]3(C)C4CC[C@]5(C)C(CC=C6C7CC(C)(C)CC[C@]7(C(=O)O)CC[C@]65C)[C@@]4(C)C[C@@H](O)[C@@H]3O2)cc1 (some centres undefined)
99.3

Look up and report measured growth for this entry: Cc1ccc(S(=O)(=O)N2CCN(S(=O)(=O)c3oc(-c4ccccc4)nc3C#N)CC2)cc1
92.7

Look up and report measured growth for this entry: COc1ccc(Cc2nn(CC(=O)N/N=C/c3ccc(Br)cc3)c(=O)c3c(C)noc23)cc1
-8.55

* * *

Test system: MDA-MB-468 breast
Experimental Details: NCI-60 one-dose screen, 48 h
Test Conditions: 10 µM unless noted
This is part of a sample that, as a whole, favours compounds with a hit. Of some 83,000 tested, about 20% had one in any assay. Calls of active or inactive are those of the source. Rule for the calls: active = growth percent below 10; inactive = the rest.
Give your call using only these classes: 1 for active, -1 for inactive

So what was the verdict on O=C(Nc1ncc(Cc2ccccc2Cl)s1)c1cccs1 in this test?
-1

So what was the verdict on N#C/C(=C/N1C(=O)/C(=C/c2ccc([N+](=O)[O-])cc2)SC1=S)c1nc2ccccc2s1 in this test?
-1

So what was the verdict on C=C1C(=O)O[C@@H]2[C@H]3[C@H](COC(C)=O)[C@@H](OC(C)=O)C[C@H]3C(=C)[C@@H](O)C[C@@H]12 in this test?
-1

So what was the verdict on C=C1CC[C@@H]2[C@](C)(COC(C)=O)[C@H](OC(C)=O)CC[C@@]2(C)[C@@H]1CC(Nc1ccc(S(=O)(=O)Nc2nc(C)cc(C)n2)cc1)C1=CCOC1=O (some centres undefined) in this test?
-1

So what was the verdict on CCCc1cccc(CCC)c1NC(=O)Nc1cc(Cl)cc(Cl)c1 in this test?
-1

So what was the verdict on COc1ccc(C(=O)Nc2ccc3nc(N4CCCCC4)cc(C)c3c2)cc1OC in this test?
-1

So what was the verdict on COc1ccc(CN2CCC(N3CCCC3=O)c3cc(Cl)ccc32)cc1 (centres undefined) in this test?
-1

So what was the verdict on COc1ccc(Nc2ncc(I)c(NCCCNC(=O)C3CCC3)n2)cc1 in this test?
1

So what was the verdict on Nc1ccc(-c2nc3ccc4[nH]ncc4c3c3c2CCCC3)cc1F in this test?
1

These measurements were taken from PubChem BioAssay (NCI).
